Property: GI50; scope: individual molecules
# System: MOLT-4
# ASSAY TEXT: NCI tumour cell line growth inhibition, 48 h
Calls of active or inactive are those of the source. Rule as the data show it: active = GI50 up to about 1.1 µM and inactive = higher.

The recorded GI50 for entry COC1(C)CC2N(C(=O)c3ccccc3)N=C(c3ccccc3)CC2(C)O1 (stereo not drawn) equals 61.7 µM (inactive)

The recorded GI50 for entry `O=C(/C=N/c1ccccc1[S-])c1ccco1.O=C(/C=N/c1ccccc1[S-])c1ccco1.[Zn+2]` equals 5.2 µM (inactive)

The recorded GI50 for entry `CC(=O)Oc1c(OC(C)C)cc(=O)n2ccsc12` equals 43.9 µM (inactive)

The recorded GI50 for entry CC1(c2ccc(Cl)cc2)N=C(NCCO)c2ccccc21 (stereo not drawn) equals 8.49 µM (inactive)

The recorded GI50 for entry `COC(=O)C1=NN2c3ccccc3CN([C@@H](C)c3ccccc3)C(=O)[C@H]2[C@@H]1C` equals 17.3 µM (inactive)

---

Property: GI50; scope: individual compounds
# Tested on: UACC-257
# ASSAY TEXT: NCI tumour cell line growth inhibition, 48 h
Active and inactive are the calls of the source. No stated cut-off is given here; in the data, active = GI50 up to about 1.1 µM and inactive = higher. *1 amine or outer side, *2 acyl side, *3 side chain or, on linkers, in order; H or OH if unused. Where a SMILES comes first, the peptide text is derived from it. [ ]: non-standard residue; d: D form. The star is where a group is joined. ξ: configuration not given here. X26 = O=C([C@H]1CCC[C@H]1N[*:1])[*:2]; ξW = NC(Cc1c[nH]c2ccccc12)C(=O)O; ξF = NC(Cc1ccccc1)C(=O)O; Boc = CC(C)(C)OC(=O)*; ξK = NCCCCC(N)C(=O)O; ξT = CC(O)C(N)C(=O)O; tBu = CC(C)(C)*

In the examples that follow, each entry is paired with its recorded GI50.
• OCC1OC(NCCNCCNC2OC(CO)C(O)C(O)C2O)C(O)C(O)C1O (centres undefined) = > 100 µM (inactive)
• O=c1n(C2CCCCC2)c(=C(Cl)Cl)c(=C(Cl)Cl)n1C1CCCCC1 = 54.5 µM (inactive)
• O=S(=O)(SC1=NCCN1)c1cccc2ccccc12 = 28.5 µM (inactive)
• N#Cc1ccc(Oc2nc3ccc(C(F)(F)F)cc3nc2-c2ccccc2)cc1 = 21.8 µM (inactive)
• COC1CC(C)(N)C(O)C(C)O1 (centres undefined) = > 100 µM (inactive)
• O=C1CC2C(=O)C1C(C(=O)O)C2C(=O)O (centres undefined) = > 100 µM (inactive)

# value of GI50, UACC-257, item `O=C(N/N=C/c1cc(Cl)cc(Cl)c1O)c1ccncc1` = > 100 µM (inactive)

# value of GI50, UACC-257, item `O=C1OC[C@@H]2[C@@H](O)CCCCCN12` = > 100 µM (inactive)

# value of GI50, UACC-257, item CC(OC(C)(C)C)C1NC(=O)C(CCCCNC(=O)OC(C)(C)C)NC(=O)C(Cc2c[nH]c3ccccc23)NC(=O)C(Cc2ccccc2)NC(=O)[C@H]2CCC[C@H]2NC(=O)C(Cc2ccccc2)NC1=O (some centres undefined) (cyclo([X26][ξF][ξW][ξK](Boc)[ξT](tBu)[ξF])) = 5.41 µM (inactive)

---

# Test system: SNB-78
# ASSAY TEXT: NCI tumour cell line growth inhibition, 48 h
Calls of active or inactive are those of the source. No stated cut-off is given here; in the data, active = GI50 up to about 1.1 µM and inactive = higher.
Property: GI50; scope: individual compounds

In the examples that follow, each entry is paired with its recorded GI50.
• CN1CCOC(c2ccccc2)O1 (stereo unspecified) = > 100 µM (inactive)
• CN1CCCC2[C@@H]3CCC4c5nonc5CC[C@]4(C)C3CC[C@@]21C (stereo partly specified) = > 100 µM (inactive)

The recorded GI50 for entry `O=[N+]([O-])c1ccc(/C=C/c2ccc(/N=N/c3ccc(/C=C/c4ccc([N+](=O)[O-])cc4S(=O)(=O)O)c(S(=O)(=O)O)c3)cc2S(=O)(=O)O)c(S(=O)(=O)O)c1` equals > 83.6 µM (inactive)

The recorded GI50 for entry `COC(=O)c1c(-c2ccccc2)cc2c3cc(-c4ccccc4)c(C(=O)OC)n3c3ccccc3n12` equals > 100 µM (inactive)

The recorded GI50 for entry COc1ccc(C2CC(C)=Nc3c(O)nc(S)nc3N2)cc1 (stereo unspecified) equals 46.7 µM (inactive)

The recorded GI50 for entry CC(=O)N/N=C1\CC(C)(C)C2CCC1C2 (stereo unspecified) equals > 100 µM (inactive)

These measurements were taken from ChEMBL document CHEMBL1201862.
